Biological target: Inhibitor of nuclear factor kappa-B kinase subunit beta (Homo sapiens)
Sequence (O14920 whole entry): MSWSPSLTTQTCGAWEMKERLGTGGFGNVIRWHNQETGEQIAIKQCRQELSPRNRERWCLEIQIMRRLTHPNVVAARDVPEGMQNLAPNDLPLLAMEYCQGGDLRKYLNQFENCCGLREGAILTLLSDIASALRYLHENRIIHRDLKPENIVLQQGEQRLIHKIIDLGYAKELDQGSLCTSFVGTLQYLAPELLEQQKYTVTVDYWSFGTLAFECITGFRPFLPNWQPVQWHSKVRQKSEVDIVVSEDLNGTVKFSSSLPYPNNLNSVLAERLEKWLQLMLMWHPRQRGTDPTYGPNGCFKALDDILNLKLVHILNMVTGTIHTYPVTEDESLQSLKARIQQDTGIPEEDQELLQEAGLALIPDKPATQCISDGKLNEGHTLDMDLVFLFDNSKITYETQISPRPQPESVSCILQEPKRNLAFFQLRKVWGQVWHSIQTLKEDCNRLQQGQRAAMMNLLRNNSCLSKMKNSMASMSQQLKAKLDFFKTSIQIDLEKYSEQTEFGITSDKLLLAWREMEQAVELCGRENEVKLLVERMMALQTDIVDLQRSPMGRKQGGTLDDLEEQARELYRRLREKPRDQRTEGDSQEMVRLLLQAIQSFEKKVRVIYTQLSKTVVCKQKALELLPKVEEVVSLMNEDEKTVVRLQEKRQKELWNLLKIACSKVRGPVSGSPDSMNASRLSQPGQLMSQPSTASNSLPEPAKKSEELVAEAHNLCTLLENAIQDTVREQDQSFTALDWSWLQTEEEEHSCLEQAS
Test: Inhibition of human recombinant C-terminal FLAG-epitope-tagged IKK2 expressed in baculovirus using biotinylated IkappaBalpha peptide as substrate assessed as decrease in [gamma-33P]-ATP incorporation in substrate after 30 mins by scintillation counting method

[
  {
    "compound": "CS(=O)(=O)Nc1ccc2c(c1)-c1c(c(C(N)=O)nn1-c1ccccc1)CC2",
    "IC50": "1000 to 10000 nM"
  },
  {
    "compound": "NC(=O)c1nn(-c2ccc(OCc3ccccc3)cc2)c2c1CCc1ccc(NC(=O)c3cccnc3Cl)cc1-2",
    "IC50": "1000 to 10000 nM"
  },
  {
    "compound": "NC(=O)c1nn(-c2ccc(S(N)(=O)=O)cc2)c2c1CCc1ccc(NC(=O)c3c(Cl)cccc3Cl)cc1-2",
    "IC50": "≤ 1000 nM"
  },
  {
    "compound": "Cc1cccc(C(=O)Nc2ccc3c(c2)-c2c(c(C(N)=O)nn2-c2ccc(S(C)(=O)=O)cc2)CC3)c1C",
    "IC50": "1000 to 10000 nM"
  },
  {
    "compound": "NC(=O)c1nn(-c2ccc(S(N)(=O)=O)cc2)c2c1CCc1ccc(NS(=O)(=O)c3ccc(Cl)cc3)cc1-2",
    "IC50": "1000 to 10000 nM"
  },
  {
    "compound": "COc1ccc(C(=O)Nc2ccc3c(c2)-c2c(c(C(N)=O)nn2-c2ccc(S(N)(=O)=O)cc2)CC3)cc1OC",
    "IC50": "1000 to 10000 nM"
  },
  {
    "compound": "NC(=O)c1nn(-c2cccc(Cl)c2)c2c1CCc1ccc(NC(=O)c3ccccc3Cl)cc1-2",
    "IC50": "≤ 1000 nM"
  },
  {
    "compound": "C[S+]([O-])c1ccc(Cl)c(C(=O)Nc2ccc3c(c2)-c2c(c(C(N)=O)nn2-c2ccc(O)cc2)CC3)c1 (stereo unspecified)",
    "IC50": "≤ 1000 nM"
  },
  {
    "compound": "CN(C)C/C=C/c1ccc(-n2nc(C(N)=O)c3c2-c2cc(NC(=O)c4ccccc4Cl)ccc2CC3)cc1",
    "IC50": "1000 to 10000 nM"
  },
  {
    "compound": "CN(C)CCCOc1ccc(-n2nc(C(N)=O)c3c2-c2cc(NC(=O)c4ccccc4Cl)ccc2CC3)cc1",
    "IC50": "1000 to 10000 nM"
  },
  {
    "compound": "CN1CCN(c2ccc(Cl)c(C(=O)Nc3ccc4c(c3)-c3c(c(C(N)=O)nn3-c3ccc5c(c3)OCO5)CC4)c2)CC1",
    "IC50": "≤ 1000 nM"
  },
  {
    "compound": "C#Cc1ccc(-n2nc(C(N)=O)c3c2-c2cc(NC(=O)c4cccnc4Cl)ccc2CC3)cc1",
    "IC50": "1000 to 10000 nM"
  },
  {
    "compound": "NC(=O)c1nn(-c2ccc(S(N)(=O)=O)cc2)c2c1CCc1ccc(NS(=O)(=O)c3cc(C(F)(F)F)cc(C(F)(F)F)c3)cc1-2",
    "IC50": "1000 to 10000 nM"
  },
  {
    "compound": "NC(=O)c1nn(-c2ccc(S(N)(=O)=O)cc2)c2c1CCc1ccc(NC(=O)c3ccc(C(F)(F)F)cc3)cc1-2",
    "IC50": "1000 to 10000 nM"
  },
  {
    "compound": "NC(=O)c1nn(-c2ccc3c(c2)OCO3)c2c1CCc1ccc(NC(=O)c3ccc(Cl)c(N)c3)cc1-2",
    "IC50": "1000 to 10000 nM"
  },
  {
    "compound": "C[C@H]1CN(c2cc(C(=O)Nc3ccc4c(c3)-c3c(c(C(N)=O)nn3-c3ccc(F)cc3)CC4)c(Cl)cn2)CCN1",
    "IC50": "≤ 1000 nM"
  }
]
